Assay: in vivo
Conditions: C57Bl/6, mouse, plasma, po, 15 mg/kg
Measure name: Cmax (µM)
// units = µM; emit number, no label

Query block: What Cmax value was documented for this compound, COc1cc(Nc2ncc3c(n2)-c2ccc(Cl)cc2C(c2c(F)cccc2OC)=NC3)ccc1C(=O)O ?
Result block: 34.8

====

Experiment: in vivo
Conditions: C57Bl/6, mouse, plasma, po, 15 mg/kg
Measure name: Tmax (min)
// units = min; emit number, no label

Query block: What Tmax value was documented for this molecule, COc1cc(Nc2ncc3c(n2)-c2ccc(Cl)cc2C(c2c(F)cccc2OC)=NC3)ccc1C(=O)O ?
Result block: 30
